Measured pKd accompanies every entry in the list below.
biological target: T1, UbcH7 (UBE2L3) (human, UniProt P68036 1-154); assay: ITC; 1-3 mM E2 in the syringe injected (2 uL, 15-19 injections) into 100-300 uM Arkadia polypeptide in the cell; 25 °C; 50 mM KH2PO4, 50 mM K2HPO4 pH 7; single-site model; conditions: both partners purified
T1 construct: human UbcH7 (UBE2L3), E2 ubiquitin-conjugating enzyme; also called wt UbcH7; source: expressed and purified as described elsewhere [21,32]
T1 sequence (P68036 whole entry): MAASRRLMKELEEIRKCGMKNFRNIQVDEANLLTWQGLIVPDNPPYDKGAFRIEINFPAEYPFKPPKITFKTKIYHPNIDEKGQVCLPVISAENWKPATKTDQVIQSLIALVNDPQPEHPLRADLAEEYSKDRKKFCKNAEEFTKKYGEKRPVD
pKd: −log10 of the molar value.

binder	pKd
Arkadia (RNF111) RING, residues 927-994 (Ark RING, 68 aa) (domain or fragment, human, UniProt Q6ZNA4 927-994, looked up, human Arkadia (RNF111), residues 927-994, 68 aa; also called wt Ark RING; source: expressed and purified as described elsewhere [31]) KQDGEEGTEEDTEEKCTICLSILEEGEDVRRLPCMHLFHQVCVDQWLITNKKCPICRVDIEAQLPSES	4.56
Arkadia (RNF111) LONG, residues 876-994 (Ark LONG, 119 aa) (domain or fragment, human, UniProt Q6ZNA4 876-994, looked up, human Arkadia (RNF111), residues 876-994, 119 aa; RING domain with the non-RING elements; also called wt Ark LONG; source: expressed and purified as described elsewhere [31]) FRGNFEELIHLEERLGNVNRGASQGTIERCTYPHKYKKVTTDWFSQRKLHCKQDGEEGTEEDTEEKCTICLSILEEGEDVRRLPCMHLFHQVCVDQWLITNKKCPICRVDIEAQLPSES	5.37

Hey, just so you know, these numbers are from paper PMC9954413.
